Source listed as the supplement of paper PMC9732359.

# TEST PROTOCOL: protein stability index of a GFP-peptide fusion (yeast GPS) (PSI 1-4); higher = more stable; sorted into four equal gates, so the index is relative within each strain
# CONDITION NOTES: pdr5∆

[
  {
    "QUERY SEQUENCE": "SVRLFSFLDPLNYGNIC [YJL039C/NUP192]",
    "protein stability index": 2.21
  },
  {
    "QUERY SEQUENCE": "KMSVTCNAQPITRSVMR [BRR2]",
    "protein stability index": 2.67
  },
  {
    "QUERY SEQUENCE": "QQLLPAPQLFPYGSFHQ [DSN1]",
    "protein stability index": 3.01
  }
]
